PROCEDURE_DETAILS: Dynamic light scattering of LNPs: Z-average diameter, number average diameter, PDI
Format: physicochemical
TEST_SETTINGS: LNP, sg:mRNA 1:1.3, N/P about 6, 50/9/38/3; Table 2, Experiment 1
MEASUREMENT_LABEL: PDI

[[record]]
molecule = "CCCCC/C=C\\C/C=C\\CCCCCCCC(=O)OCC(COC(=O)CCC(OCCCCCCCC)OCCCCCCCC)COC(=O)OCC1CCCN(CC)C1 (stereo not drawn) [Compound 5]"
measured_value = 0.059

[[record]]
molecule = "CCCCC/C=C\\C/C=C\\CCCCCCCC(=O)OCC(COC(=O)CCC(OCCCCCCCC)OCCCCCCCC)COC(=O)NCCCN(C)C (stereo not drawn) [Compound 6]"
measured_value = 0.066

[[record]]
molecule = "CCCCC/C=C\\C/C=C\\CCCCCCCC(=O)OCC(COC(=O)CCC(OCCCCCCCC)OCCCCCCCC)COC(=O)OCCCN1CCCC1 (stereo not drawn) [Compound 3]"
measured_value = 0.079

[[record]]
molecule = "CCCCC/C=C\\C/C=C\\CCCCCCCC(=O)OCC(COC(=O)CCC(OCCCCCCCC)OCCCCCCCC)COC(=O)OCCCN(C)C (stereo not drawn) [Compound 2]"
measured_value = 0.046

[[record]]
molecule = "CCCCC/C=C\\C/C=C\\CCCCCCCC(=O)OCC(COC(=O)CCC(OCCCCCCCC)OCCCCCCCC)COC(=O)OCCCN(CC)CC (stereo not drawn) [Compound 1, reference compound]"
measured_value = 0.022

[[record]]
molecule = "CCCCC/C=C\\C/C=C\\CCCCCCCC(=O)OCC(COC(=O)CCC(OCCCCCCCC)OCCCCCCCC)COC(=O)OCCCN(C)CCN(C)C (stereo not drawn) [Compound 4]"
measured_value = 0.129


====

PROCEDURE_DETAILS: RNA encapsulation efficiency of LNPs (Ribogreen fluorescence assay)
Type: physicochemical
TEST_SETTINGS: LNP with G534 sgRNA and Cas9 mRNA, sg:mRNA 1:2, experiment 109
MEASUREMENT_LABEL: % E (encapsulation efficiency)

[[record]]
compound = "CCCCC/C=C\\C/C=C\\CCCCCCCC(=O)OCC(COC(=O)CCC(OCCCCCCCC)OCCCCCCCC)COC(=O)NCCN(CC)CC (stereo not shown)"
measured_value = "97%"

[[record]]
compound = "CCCCCCCCCCOC(=O)CCCCCCCC(=O)OCC(COC(=O)CCC(OCCCCCCCC)OCCCCCCCC)COC(=O)OCCCN(CC)CC (stereo not shown)"
measured_value = "98%"

[[record]]
compound = "CCCCCCCCCC(C)OC(=O)CCCCCCCC(=O)OCC(COC(=O)CCC(OCCCCCCCC)OCCCCCCCC)COC(=O)OCCCN(CC)CC (stereo not shown)"
measured_value = "97%"

[[record]]
compound = "CCCCC/C=C\\C/C=C\\CCCCCCCC(=O)OCC(COC(=O)CCC(OCCCCCCCC)OCCCCCCCC)COC(=O)OCCCN(CC)CC (stereo not shown) [Compound 1, reference compound]"
measured_value = "98%"


====

PROCEDURE_DETAILS: Dynamic light scattering of LNPs: Z-average diameter, number average diameter, PDI
Type: physicochemical
TEST_SETTINGS: LNP with G534 sgRNA and Cas9 mRNA, sg:mRNA 1:2, experiment 109
MEASUREMENT_LABEL: Z-avg (nm)

[[record]]
compound = "CCCCCCCCCCOC(=O)CCCCCCCC(=O)OCC(COC(=O)CCC(OCCCCCCCC)OCCCCCCCC)COC(=O)OCCCN(CC)CC (stereo not shown)"
measurement_label = "Z-avg (nm)"
display_unit = "nm"
measured_value = 91

[[record]]
compound = "CCCCC/C=C\\C/C=C\\CCCCCCCC(=O)OCC(COC(=O)CCC(OCCCCCCCC)OCCCCCCCC)COC(=O)NCCN(CC)CC (stereo not shown)"
measurement_label = "Z-avg (nm)"
display_unit = "nm"
measured_value = 80

[[record]]
compound = "CCCCCCCCCC(C)OC(=O)CCCCCCCC(=O)OCC(COC(=O)CCC(OCCCCCCCC)OCCCCCCCC)COC(=O)OCCCN(CC)CC (stereo not shown)"
measurement_label = "Z-avg (nm)"
display_unit = "nm"
measured_value = 95

[[record]]
compound = "CCCCC/C=C\\C/C=C\\CCCCCCCC(=O)OCC(COC(=O)CCC(OCCCCCCCC)OCCCCCCCC)COC(=O)OCCCN(CC)CC (stereo not shown) [Compound 1, reference compound]"
measurement_label = "Z-avg (nm)"
display_unit = "nm"
measured_value = 88

